# Target Or Test System: UniProtKB P12822
# Sequence (P12822 whole entry): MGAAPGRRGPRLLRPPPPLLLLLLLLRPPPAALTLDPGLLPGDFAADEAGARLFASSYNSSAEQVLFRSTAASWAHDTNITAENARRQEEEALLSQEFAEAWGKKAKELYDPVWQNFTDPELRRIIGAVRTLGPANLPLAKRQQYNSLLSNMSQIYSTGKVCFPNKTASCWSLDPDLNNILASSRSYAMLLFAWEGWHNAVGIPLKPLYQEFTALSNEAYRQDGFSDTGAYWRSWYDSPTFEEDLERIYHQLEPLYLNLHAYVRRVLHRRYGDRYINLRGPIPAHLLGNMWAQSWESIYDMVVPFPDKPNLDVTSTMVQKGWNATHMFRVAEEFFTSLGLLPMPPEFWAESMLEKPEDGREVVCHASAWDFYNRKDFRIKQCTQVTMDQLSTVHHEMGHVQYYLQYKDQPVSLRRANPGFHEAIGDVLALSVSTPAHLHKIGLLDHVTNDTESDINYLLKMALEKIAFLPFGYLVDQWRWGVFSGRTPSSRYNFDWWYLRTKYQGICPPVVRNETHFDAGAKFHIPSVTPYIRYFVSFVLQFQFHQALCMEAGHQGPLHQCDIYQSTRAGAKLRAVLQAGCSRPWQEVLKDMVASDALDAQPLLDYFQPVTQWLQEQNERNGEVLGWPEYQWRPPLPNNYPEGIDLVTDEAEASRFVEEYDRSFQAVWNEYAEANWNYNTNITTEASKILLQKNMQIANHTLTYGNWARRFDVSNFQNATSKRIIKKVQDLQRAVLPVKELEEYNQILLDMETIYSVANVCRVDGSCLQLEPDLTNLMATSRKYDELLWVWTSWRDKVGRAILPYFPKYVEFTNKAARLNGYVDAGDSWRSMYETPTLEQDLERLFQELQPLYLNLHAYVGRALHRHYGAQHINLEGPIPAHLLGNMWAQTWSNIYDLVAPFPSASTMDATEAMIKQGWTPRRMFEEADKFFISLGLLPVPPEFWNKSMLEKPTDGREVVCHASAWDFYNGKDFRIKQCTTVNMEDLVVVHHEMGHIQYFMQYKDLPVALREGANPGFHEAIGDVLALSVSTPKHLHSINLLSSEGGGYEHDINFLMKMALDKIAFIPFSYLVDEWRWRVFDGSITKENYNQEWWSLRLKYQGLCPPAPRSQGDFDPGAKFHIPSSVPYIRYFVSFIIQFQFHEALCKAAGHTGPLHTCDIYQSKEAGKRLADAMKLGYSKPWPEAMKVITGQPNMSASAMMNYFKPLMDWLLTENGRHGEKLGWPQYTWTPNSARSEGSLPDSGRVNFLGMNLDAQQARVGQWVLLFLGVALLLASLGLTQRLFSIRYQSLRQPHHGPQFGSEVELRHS
# Assay Notes: Inhibition of rabbit lung angiotensin I converting enzyme (ACE) using hippuryl-histidyl-leucine as substrate
# Condition Details: read-out: I50
pIC50: −log10 of the molar value.
Labels assigned by pIC50 range: lower level: < 7; middle level: ≥ 7 and < 8; upper level: ≥ 8

Completed entries (count: 2):
> print(dat)
                      smiles.representation  label.value
1  NCCCC[C@H](OP(=O)(O)CCCCc1ccccc1)C(=O)N1C[C@@H](Cc2ccccc2)C[C@H]1C(=O)O  upper level
2  NCCCC[C@H](OP(=O)(O)CCCCc1ccccc1)C(=O)N1C[C@H](c2ccccc2)C[C@H]1C(=O)O  lower level

Returns: class label. Input: COc1ccc(N(CC(=O)O)C(=O)[C@H](CCCCN)OP(=O)(O)CCCCc2ccccc2)cc1
middle level

And then COc1ccc(N(CC(=O)O)C(=O)[C@H](CCCCN)OP(=O)(O)CCCCc2ccccc2)cc1OC , what is it?
middle level

And then NCCCC[C@H](OP(=O)(O)CCCCc1ccccc1)C(=O)N1C[C@@H](c2ccccc2)C[C@H]1C(=O)O , what is it?
upper level

And then NCCCC[C@H](OP(=O)(O)CCCCc1ccccc1)C(=O)N1C[C@H](F)C[C@H]1C(=O)O , what is it?
lower level

And then NCCCC[C@H](OP(=O)(O)CCCCc1ccccc1)C(=O)N1c2ccccc2C[C@H]1C(=O)O , what is it?
upper level

And then NCCCC[C@H](OP(=O)(O)CCCCc1ccccc1)C(=O)N1CC=C[C@H]1C(=O)O , what is it?
middle level

And then NCCCC[C@H](OP(=O)(O)CCCCc1ccccc1)C(=O)N1[C@H](C(=O)O)C[C@@H]2CCC[C@@H]21 , what is it?
middle level

And then NCCCC[C@H](OP(=O)(O)CCCCc1ccccc1)C(=O)N(CC(=O)O)c1ccc2c(c1)OCO2 , what is it?
middle level

And then NCCCC[C@H](OP(=O)(O)CCCCc1ccccc1)C(=O)N1C[C@H](C2CCCCC2)C[C@H]1C(=O)O , what is it?
middle level

And then NCCCC[C@H](OP(=O)(O)CCCCc1ccccc1)C(=O)N(CC(=O)O)C1CCCCC1 , what is it?
middle level
